# System: Streptococcus pneumoniae
# test details: Antimicrobial activity against penicillin-resistant Streptococcus pneumoniae 3413 by CLSI method
# Type: functional
Give MIC for every item shown.
Quick note: give the figure in µg/mL, leave out the unit.

Challenge: Look up MIC: `CC1(C)S[C@@H]2[C@H](NC(=O)[C@H](N)c3ccc(O)cc3)C(=O)N2[C@H]1C(=O)O`
Response given: 2

Challenge: # get_value(readout='MIC', item= `CC1(C)S[C@@H]2[C@H](NC(=O)Cc3ccccc3)C(=O)N2[C@H]1C(=O)O` )
Response given: 4

Challenge: Given `CO/N=C(\C(=O)N[C@@H]1C(=O)N2C(C(=O)O)=C(COC(N)=O)CS[C@H]12)c1ccco1` , state its recorded MIC.
Response given: 4

Challenge: Field request: MIC | item: C[C@@H](O)[C@H]1C(=O)N2C(C(=O)O)=C(SCCNC=N)C[C@H]12 [IMIPENEM ANHYDROUS]
Response given: 0.125

Challenge: Can you share its MIC? I mean this molecule: `C[C@@H](O)[C@H]1C(=O)N2C(C(=O)O)=C([C@H]3CCCO3)S[C@H]12`
Response given: 1
